- target of assay: human recombinant wild-type ALK kinase domain (amino acids 1093-1411) (Homo sapiens, UniProt Q9UM73)
- Construct: ALK kinase domain (amino acids 1093-1411)
- Sequence (Q9UM73 1093-1411): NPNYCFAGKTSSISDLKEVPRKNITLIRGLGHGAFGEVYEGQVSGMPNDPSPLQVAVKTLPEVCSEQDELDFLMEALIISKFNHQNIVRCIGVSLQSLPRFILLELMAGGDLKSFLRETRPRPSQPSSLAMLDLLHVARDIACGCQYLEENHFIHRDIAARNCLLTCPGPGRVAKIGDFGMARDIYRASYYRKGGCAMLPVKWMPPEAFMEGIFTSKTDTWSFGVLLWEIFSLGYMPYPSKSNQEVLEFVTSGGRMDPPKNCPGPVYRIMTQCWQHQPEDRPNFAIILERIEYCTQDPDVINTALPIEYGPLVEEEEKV
- test details: ALK enzyme assay 2 (microfluidic mobility shift assay)
Structures can show the parent of a compound that is named as a salt.
readout label: Ki (pM)

>>> value_measured("C[C@@H](Oc1cc(-c2cnc(CO)s2)cnc1N)c1cc(F)ccc1-n1nccn1")
680
>>> value_measured("COc1ccc(F)cc1C(C)Oc1nc(-c2cn(C)c(C)n2)cnc1N (stereo not drawn)")
5400
>>> value_measured("C[C@@H](Oc1cc(-c2cnc(CS(C)(=O)=O)s2)cnc1N)c1cc(F)ccc1-n1nccn1")
580
>>> value_measured("COc1nc(CO)ccc1-c1cnc(N)c(O[C@H](C)c2cc(F)ccc2-n2nccn2)c1")
430
>>> value_measured("CC(C)n1cc(-c2cnc(N)c(O[C@H](C)c3cc(F)ccc3-n3nccn3)c2)cn1")
216
>>> value_measured("Cc1n[nH]c(C)c1-c1cnc(N)c(O[C@H](C)c2cc(F)ccc2F)c1")
1560
>>> value_measured("C[C@@H](Oc1cc(-c2cccc3c2CNC3=O)cnc1N)c1cc(F)ccc1-n1nccn1")
370
>>> value_measured("CNCc1ccc(-c2cnc(N)c(OC(C)c3cc(F)ccc3OC)c2)cc1S(C)(=O)=O (stereo not drawn)")
120
>>> value_measured("CC(Oc1cc(-c2ccnn2C)cnc1N)c1cc(F)ccc1C#N (stereo not drawn) [Example 36, monohydrochloride]")
22000
>>> value_measured("COc1ccc(F)cc1C(C)Oc1cc(-c2ccnn2CCO)cnc1N (stereo not drawn)")
6300
>>> value_measured("COc1ccncc1-c1cnc(N)c(OC(C)c2cc(F)ccc2OC)c1 (stereo not drawn)")
739
>>> value_measured("CC(Oc1cc(-c2cn(C)cn2)cnc1N)c1cc(F)ccc1Cl (stereo not drawn)")
45000
>>> value_measured("Cc1n[nH]cc1-c1cnc(N)c(O[C@H](C)c2cc(F)ccc2-n2nccn2)n1")
560
>>> value_measured("COc1ccc(F)cc1C(C)Oc1cc(-c2c(C)n[nH]c2C)cnc1N (stereo not drawn)")
620
>>> value_measured("COc1ccc(F)cc1C(C)Oc1cc(-c2cc(Cl)nnc2N)cnc1N (stereo not drawn)")
11000
>>> value_measured("C[C@@H](Oc1cc(-c2ccc3c(c2)CCS3(=O)=O)cnc1N)c1cc(F)ccc1-n1nccn1")
1100
>>> value_measured("C[C@@H](Oc1cc(-c2ccc3c(c2)S(=O)(=O)CC3O)cnc1N)c1cc(F)ccc1-n1nccn1 (stereo partly drawn)")
470
>>> value_measured("Cc1nc(-c2cnc(N)c(O[C@H](C)c3cc(F)ccc3-n3nccn3)c2)sc1C(C)O (stereo partly drawn)")
4370
>>> value_measured("CC(O)Cn1cc(-c2cnc(N)c(O[C@H](C)c3cc(F)ccc3-n3nccn3)c2)cn1 (stereo partly drawn)")
200
>>> value_measured("C[C@@H](Oc1cc(-c2cccc(P(C)(C)=O)c2)cnc1N)c1cc(F)ccc1-n1nccn1")
203
>>> value_measured("Cc1n[nH]cc1-c1cnc(N)c(OC(C)c2cc(F)ccc2N2CCCC2=O)n1 (stereo not drawn)")
5100

----------
Target or system EML4-ALK wt v1 in NIH-3T3 cells (Homo sapiens, UniProt Q9UM73); recorded quantity log10 of IC50.
readout label: log10 of IC50 (log10 of the value in nM)

>>> value_measured("COc1ccc(F)cc1C(C)Oc1cc(-c2sc(CO)nc2C)cnc1N (centres unmarked)")
0.41
>>> value_measured("C[C@@H](Oc1cc(-c2c[nH]nc2C#N)cnc1N)c1cc(F)ccc1-n1nccn1")
0.62
>>> value_measured("CC(Oc1cc(-c2ccnn2C)cnc1N)c1cc(F)ccc1-c1ncco1 (centres unmarked)")
2.28
>>> value_measured("C[C@@H](Oc1nc(-c2cccc(S(C)(=O)=O)c2)cnc1N)c1cc(F)ccc1-n1nccn1")
1.02
>>> value_measured("C[C@@H](Oc1cc(-c2csc(CO)n2)cnc1N)c1cc(F)ccc1-n1nccn1")
2.22
>>> value_measured("C[C@@H](Oc1cc(-c2ccnc(N3CCOCC3)c2F)cnc1N)c1cc(F)ccc1-n1nccn1")
1.25
>>> value_measured("CCc1nc(CS(C)(=O)=O)sc1-c1cnc(N)c(O[C@H](C)c2cc(F)ccc2-n2nccn2)c1")
1.02
>>> value_measured("CNC(=O)c1nc(C)c(-c2cnc(N)c(O[C@H](C)c3cc(F)ccc3-n3nccn3)c2)s1")
1.77

----------
- target of assay: EML4-ALK wt v1 in NIH-3T3 cells (Homo sapiens, UniProt Q9UM73)
- Sequence (Q9UM73 with tags, fused parts or gaps): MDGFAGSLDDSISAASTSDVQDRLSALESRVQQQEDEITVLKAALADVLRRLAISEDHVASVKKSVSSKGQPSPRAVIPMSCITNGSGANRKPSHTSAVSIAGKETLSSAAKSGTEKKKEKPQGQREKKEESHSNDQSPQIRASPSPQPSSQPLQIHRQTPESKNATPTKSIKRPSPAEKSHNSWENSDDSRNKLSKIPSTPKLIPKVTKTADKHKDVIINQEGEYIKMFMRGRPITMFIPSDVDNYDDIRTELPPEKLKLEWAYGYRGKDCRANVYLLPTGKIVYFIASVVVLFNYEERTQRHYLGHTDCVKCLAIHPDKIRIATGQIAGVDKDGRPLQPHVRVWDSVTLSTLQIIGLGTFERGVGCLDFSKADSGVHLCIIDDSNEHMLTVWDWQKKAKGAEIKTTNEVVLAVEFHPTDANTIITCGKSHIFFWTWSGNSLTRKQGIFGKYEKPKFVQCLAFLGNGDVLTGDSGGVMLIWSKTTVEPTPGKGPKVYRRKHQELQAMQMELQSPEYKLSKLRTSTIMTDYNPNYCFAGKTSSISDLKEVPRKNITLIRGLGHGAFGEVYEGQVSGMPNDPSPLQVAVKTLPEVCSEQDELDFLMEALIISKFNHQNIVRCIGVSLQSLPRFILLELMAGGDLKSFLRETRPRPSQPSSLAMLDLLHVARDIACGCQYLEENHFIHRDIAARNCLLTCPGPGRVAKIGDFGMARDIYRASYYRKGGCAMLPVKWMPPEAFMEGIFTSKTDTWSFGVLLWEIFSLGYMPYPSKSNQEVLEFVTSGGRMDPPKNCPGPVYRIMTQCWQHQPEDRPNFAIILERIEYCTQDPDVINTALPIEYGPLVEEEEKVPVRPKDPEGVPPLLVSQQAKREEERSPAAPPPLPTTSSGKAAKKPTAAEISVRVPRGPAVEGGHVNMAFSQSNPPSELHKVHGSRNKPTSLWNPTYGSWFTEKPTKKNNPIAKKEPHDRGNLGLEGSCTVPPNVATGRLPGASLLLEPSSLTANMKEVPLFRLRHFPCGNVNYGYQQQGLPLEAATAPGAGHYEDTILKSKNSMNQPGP
pIC50: −log10 of the molar value.
Each entry below lists one item and its recorded pIC50 value.
readout label: pIC50

>>> value_measured("C[C@@H](Oc1nc(-c2cnn(C3CCNCC3)c2)cnc1N)c1cc(F)ccc1-n1nccn1")
7.52
>>> value_measured("CNCc1ccc(-c2cnc(N)c(OC(C)c3cc(F)ccc3OC)c2)cc1S(C)(=O)=O (centres unmarked)")
8.04
>>> value_measured("COc1ccncc1-c1cnc(N)c(OC(C)c2cc(F)ccc2OC)c1 (centres unmarked)")
7.23
>>> value_measured("C[C@@H](Oc1cc(-c2ccc3c(c2)CNC3=O)cnc1N)c1cc(F)ccc1-n1nccn1")
7.36
>>> value_measured("C[C@@H](Oc1nc(-c2ccnc(N3CCN(C)CC3)c2)cnc1N)c1cc(F)ccc1-n1nccn1")
8.26

----------
- target of assay: human recombinant wild-type ALK kinase domain (amino acids 1093-1411) (Homo sapiens, UniProt Q9UM73)
- Construct: ALK kinase domain (amino acids 1093-1411)
- test details: ALK enzyme assay 2 (microfluidic mobility shift assay)
pKi: −log10 of the molar value.
Listed next: entries and their corresponding pKi.
readout label: pKi

>>> value_measured("Cc1ccc(-c2cnc(N)c(O[C@H](C)c3cc(F)ccc3-n3nccn3)c2)cn1")
9.11
>>> value_measured("C[C@@H](Oc1cc(-c2ccc(CO)c(S(C)(=O)=O)c2)cnc1N)c1cc(F)ccc1-n1nccn1")
"> 9.70"
>>> value_measured("CC1CNc2ncc(-c3cnc(N)c(O[C@H](C)c4cc(F)ccc4-n4nccn4)c3)cc2O1 (some centres unmarked)")
"> 9.70"
>>> value_measured("C[C@@H](Oc1nc(-c2ccnc(N3CCN(C)CC3)c2)cnc1N)c1cc(F)ccc1-n1nccn1")
"> 9.70"
>>> value_measured("CCn1cc(-c2cnc(N)c(O[C@H](C)c3cc(F)ccc3-n3nccn3)c2)ccc1=O")
"> 9.70"
>>> value_measured("C[C@@H](Oc1nc(-c2cnn(C3CCNCC3)c2)cnc1N)c1cc(F)ccc1-n1nccn1")
"> 9.70"
>>> value_measured("C=Cn1nnc(C)c1-c1cnc(N)c(OC(C)c2cc(F)ccc2OC)c1 (centres unmarked)")
8.54
>>> value_measured("COc1ccc(F)cc1C(C)Oc1cc(-c2cncc(S(C)(=O)=O)c2)cnc1N (centres unmarked)")
8.71

----------
- target of assay: human recombinant wild-type ALK kinase domain (amino acids 1093-1411) (Homo sapiens, UniProt Q9UM73)
- Construct: ALK kinase domain (amino acids 1093-1411)
- test details: ALK enzyme assay 2 (microfluidic mobility shift assay);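 note: kinase reaction run 1 h at room temperature, conversion quantified by electrophoretic separation of fluorescent peptide substrate from phosphorylated product, about 15-20% turnover without inhibitor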
pKi: −log10 of the molar value.
In this section, each of the compounds is paired with its reported pKi.
readout label: pKi

>>> value_measured("C[C@@H](Oc1cc(-c2ccnc(F)c2F)cnc1N)c1cc(F)ccc1-n1nccn1")
8.26
>>> value_measured("C[C@@H](Oc1cc(-c2ccc3c(c2)CNC3=O)cnc1N)c1cc(F)ccc1-n1nccn1")
9.66
>>> value_measured("COc1ccc(F)cc1C(C)Oc1nc(-c2nccn2C)cnc1N (stereo not drawn)")
8.19
>>> value_measured("C[C@@H](Oc1cc(-c2ccnc(N3CC(O)C3)c2F)cnc1N)c1cc(F)ccc1-n1nccn1")
9.59

----------
Each entry below carries its measured pIC50, system: EML4-ALK wt v1 in NIH-3T3 cells (Homo sapiens, UniProt Q9UM73).
pIC50: −log10 of the molar value.
readout label: pIC50

>>> value_measured("Cc1n[nH]cc1-c1cnc(N)c(O[C@H](C)c2cc(F)ccc2-n2nccn2)n1")
7.39
>>> value_measured("Cc1nn(CS(C)(=O)=O)c(C)c1-c1cnc(N)c(O[C@H](C)c2cc(F)ccc2-n2nccn2)c1")
7.86
>>> value_measured("COc1ccc(F)cc1C(C)Oc1nc(-c2cn(C)cn2)cnc1N (centres unmarked)")
6.80
>>> value_measured("CNS(=O)(=O)c1ccc(OC)c(-c2cnc(N)c(O[C@H](C)c3cc(F)ccc3-n3nccn3)c2)c1")
8.05
>>> value_measured("CNCc1ccc(-c2cnc(N)c(O[C@H](C)c3cc(F)ccc3-n3nccn3)c2)c(OC)n1")
7.91
>>> value_measured("COc1ccc(F)cc1C(C)Oc1cc(-c2cncc(S(C)(=O)=O)c2)cnc1N (centres unmarked)")
7.14
>>> value_measured("COc1ccc(F)cc1C(C)Oc1cc(-c2c(CO)cnn2C)cnc1N (centres unmarked)")
6.38
>>> value_measured("Cc1cc(-c2cnc(N)c(O[C@H](C)c3cc(F)ccc3-n3nccn3)c2)cc(P(C)(C)=O)c1")
7.05
>>> value_measured("Cc1ccc(-c2cnc(N)c(O[C@H](C)c3cc(F)ccc3-n3nccn3)c2)cn1")
7.99
>>> value_measured("C[C@@H](Oc1cc(-c2ccc(CO)c(S(C)(=O)=O)c2)cnc1N)c1cc(F)ccc1-n1nccn1")
8.36
>>> value_measured("C[C@@H](Oc1cc(-c2cnc(CO)s2)cnc1N)c1cc(F)ccc1-n1nccn1")
7.67
>>> value_measured("COCc1ccc(-c2cnc(N)c(OC(C)c3cc(F)ccc3OC)c2)cc1S(C)(=O)=O (centres unmarked)")
8.38
>>> value_measured("Cc1nc(-c2cnc(N)c(O[C@H](C)c3cc(F)ccc3-n3nccn3)c2)sc1C(C)O (some centres unmarked)")
6.54
>>> value_measured("CC(Oc1cc(-c2ccnn2C)cnc1N)c1cc(F)ccc1-n1ccnn1 (centres unmarked)")
6.05
>>> value_measured("Cc1nc(C(C)O)sc1-c1cnc(N)c(O[C@H](C)c2cc(F)ccc2-n2nccn2)c1 (some centres unmarked)")
7.77
>>> value_measured("Cc1n[nH]c(C)c1-c1cnc(N)c(O[C@H](C)c2cc(F)ccc2-n2nccn2)c1")
7.92
>>> value_measured("COc1ccc(F)cc1C(C)Oc1cc(-c2ccc(C(C)N)nc2)cnc1N (centres unmarked)")
8.08
